# Test: qHTS assay to identify small molecule agonists of the endoplasmic reticulum stress response signaling pathway - cell viability counter screen (AID 1159517);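 also: HeLa cells carrying an ER stress response element beta-lactamase reporter; % is scaled to controls: 0 for no effect and ±100 for the full control effect; nearly all actives have a fitted effect of over 50% in size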
# Condition: ESRE-bla HeLa viability, CellTiter-Glo luminescence, 5 h; series mostly up to 61 µM
Records with an inconclusive call do not appear. The source made the active and inactive calls. Calls follow the shape of the full dose curve.
Readout: activity change, negative = cytotoxicity

Some compounds with known activity change, negative = cytotoxicity results, for comparison:
{"columns": ["Compound", "Recorded value"],
 "data": [
  ["CC(CO)(CO)CO", "inactive"],
  ["[O-][n+]1cccc(/C(Cl)=N/OC[C@@H](O)CN2CCCCC2)c1", "inactive"],
  ["C/C=C(\\C)C(=O)OCCc1ccccc1", "inactive"],
  ["CC(S)C(C)S (stereo not drawn)", "inactive"],
  ["Cc1ccc(C)c([N+](=O)[O-])c1", "inactive"]
]}

// activity change, negative = cytotoxicity lookup, compound = `C=C(C)c1cccc(C(C)(C)N=C=O)c1` , result: inactive

// activity change, negative = cytotoxicity lookup, compound = `O=C1CCCCO1` , result: inactive

// activity change, negative = cytotoxicity lookup, compound = `CN(C)CCCCl` , result: inactive

----------
# Test: qHTS RealTime-Glo MT Cell Viability Assay in HEK293 cells - 40 hour (AID 1224874); also: % is scaled to controls: 0 for no effect and ±100 for the full control effect; nearly all actives have a fitted effect of over 50% in size
# Condition: RealTime-Glo luminescence; active compounds read low
# Text: U.S. Tox21 Program National Center for Advancing Translational Sciences [NCATS] NIH Chemical Genomics Center [NCGC] U.S. Environmental Protection Agency [EPA] National Institutes of Environmental Health Sciences [NIEHS] National Toxicology Program [NTP] U.S. Food and Drug Administration [FDA] Tox21 Assay Overview: Measure of cell viability is critical in the cell-base assay. Analysis of cell viability is necessary for the characterization of cell responses to cytotoxic drugs and environmental stress. […]
Inconclusive results are not listed.
Quick reference: max response of the listed items.
Write the answer as a number in %, unit excluded.

Some molecules with known max response results, for comparison:
{"columns": ["Molecule", "Readout", "Recorded value"],
 "data": [
  ["CN1C[C@@H]2C[C@H]1CN2c1cc2c(cc1F)c(=O)c(C(=O)O)cn2C1CC1", "max response", 11.1],
  ["O=C(O)[C@H](O)c1ccccc1", "max response", 0.819],
  ["CCCCCCCCCCCCCCC(=O)NC(CO)CCCCCCCCCCCCCC (centres undefined)", "max response", 5.76],
  ["CCCCCCCCCOC(=O)CCCCC(=O)OCCCCCCC", "max response", 0.901]
]}

// max response lookup, molecule = `COCCc1ccccn1` , result: -3.81

// max response lookup, molecule = `OC[C@H]1O[C@@H](O[C@@H]2[C@@H](CO)O[C@](O)(CO)[C@H]2O)[C@H](O)[C@@H](O)[C@H]1O` , result: 1.5

// max response lookup, molecule = CCC(C)C(C)=O (centres undefined) , result: 0.997

// max response lookup, molecule = `O=C(Cl)c1ccccc1[N+](=O)[O-]` , result: 9.73

// max response lookup, molecule = `COP(=O)(O)OP(=O)(O)OC` , result: 5.3

----------
# Test: qHTS RealTime-Glo MT Cell Viability Assay in HEK293 cells - 40 hour (AID 1224874); also: % is scaled to controls: 0 for no effect and ±100 for the full control effect; nearly all actives have a fitted effect of over 50% in size
# Condition: RealTime-Glo luminescence; active compounds read low
Results filed as inconclusive are left out.
Quick reference: max response of the listed items.
Write the answer as a number in %, unit excluded.

// max response lookup, compound = `CO[Si](CCCn1c(=O)n(CCC[Si](OC)(OC)OC)c(=O)n(CCC[Si](OC)(OC)OC)c1=O)(OC)OC` , result: 1.02

// max response lookup, compound = `CC(=O)O[C@H]1C[C@@H]2CC[C@@]1(C)C2(C)C` , result: 4.28

// max response lookup, compound = `CCCCCCCCCCCCCCCCCC#N` , result: -5.42
